# Test system: Fibroblast
# test: Multiplex assay against human fibroblast
# Format: toxicity, cell-based
# conditions: 24 h, 1 µM, compound concentration 1 uM, replicate 1
assay metric: Population Pyknosed Nuclei (%)
A number alone suffices; assume %.

// solved cases for Population Pyknosed Nuclei (%) follow
Cl.N=C(N)NC(=O)Cc1c(Cl)cccc1Cl [GUANFACINE HYDROCHLORIDE] ... 14
Cl.NCCc1ccc(O)c(O)c1 [DOPAMINE HYDROCHLORIDE] ... 16
CN[C@@H](C)C(=O)N[C@H](C(=O)N1CCC[C@H]1C(=O)Nc1snnc1-c1ccccc1)C1CCCCC1 ... 16
CN1CCN(c2cc(-c3ccccc3)nc(N)n2)CC1 ... 16

Moving on to another compound below.
The recorded Population Pyknosed Nuclei (%) for entry CN(C)C(=O)Cn1cc(-c2ccc(-c3cncc4ccccc34)cc2)cn1 equals 14

* * *

# Test system: U2OS
# test: Multiplex assay against U2OS
# Assay type: toxicity, cell-based
# conditions: human, 24 h, 10 µM, compound concentration 10 uM, replicate 1
Entries annotated with measured Population Normal (%)
Record the value in %, omitting the unit from your answer.

Previously resolved entries follow.
CCCCC(=O)N(Cc1ccc(-c2ccccc2-c2nnn[nH]2)cc1)[C@H](C(=O)O)C(C)C ... 97
Cl.N=C(N)NC(=O)Cc1c(Cl)cccc1Cl [GUANFACINE HYDROCHLORIDE] ... 99
CC(/C=C1\SC(=S)N(CCCC(=O)Nc2ccc(C(=O)O)c(O)c2)C1=O)=C\c1ccccc1 ... 97
COc1cccc2c1c(NS(=O)(=O)c1ccc(Cl)s1)nn2Cc1cccc(CNC(=O)C(C)(C)O)c1 ... 98
CC(C)c1noc(N2CCC(COc3ccc(-c4ccc(S(C)(=O)=O)cc4)nc3)CC2)n1 [GSK-1292263] ... 99

API: the following record is the query input.
# Population Normal (%) of CC(=O)Nc1cccc2c1c(Sc1ccc(Cl)cc1)c(C)n2CC(=O)O [AZD1981] = 99

* * *

# Tested on: HEK-293T
# test: Multiplex assay against HEK293T
# Format: toxicity, cell-based
# conditions: human, 24 h, 10 µM, compound concentration 10 uM, replicate 2
assay metric: Population Fragmented Nuclei (%)
Answer in %, number only, no unit symbol.

// known answers, use as guide
CCc1cc2cc(NS(=O)(=O)c3ccc(C#N)cc3)ccc2n(CC)c1=O ... 10
CN1CCN(c2cc(-c3ccccc3)nc(N)n2)CC1 ... 9
Cc1onc(-c2ccccc2Cl)c1C(=O)N(C)c1ccc(Cl)cc1 ... 7

Reported Population Fragmented Nuclei (%) ( CC(C)c1noc(N2CCC(COc3ccc(-c4ccc(S(C)(=O)=O)cc4)nc3)CC2)n1 ) = 11

The value of Population Fragmented Nuclei (%) measured for the compound Cc1noc(-c2ccc(-c3ccc(CC(=O)O)cc3)cc2)c1NC(=O)O[C@H](C)c1ccccc1Cl turned out to be 9

* * *

Reported Population Healthy Nuclei (%) values for a set of compounds
# Tested on: Fibroblast
# test: Multiplex assay against human fibroblast
# Type: toxicity, cell-based
# conditions: 24 h, 1 µM, compound concentration 1 uM, replicate 2

Cc1cccc(NC(=O)CN2CCC(c3ccccn3)CC2)c1.Cl.Cl ... 53%
Cc1sc2c(c1C)C(c1ccc(Cl)cc1)=N[C@@H](CC(=O)NCCCCCCCCNC(=O)COc1cccc3c1C(=O)N(C1CCC(=O)NC1=O)C3=O)c1nnc(C)n1-2 (some centres undefined) ... 32%
CCc1cc2cc(NS(=O)(=O)c3ccc(C#N)cc3)ccc2n(CC)c1=O ... 48%

Query compound follows.
compound CC(C)(C)c1cc(NC(=O)Nc2ccc(-c3cn4c(n3)sc3cc(OCCN5CCOCC5)ccc34)cc2)no1 , Population Healthy Nuclei (%) observed: 61%
